Listing of entries alongside the reported IC50.
# Tested on: mesothelioma (H226) cancer cell line
# experimental-details: 72 hr ATP luminescence cell proliferation inhibition assay, H226
# Assay type: cell-based, human
# assay-context: H226 cells
Express it in nM; write the number only.

COc1cc2c(cc1OCCCC(=O)Nc1cc(C(=O)Nc3ccc(-c4ncc[nH]4)cc3)n(C)c1)N=C[C@@H]1Cc3ccccc3CN1C2=O; 0.66
COc1cc2c(cc1OCCCC(=O)Nc1cc(C(=O)Nc3cccnc3)n(C)c1)N=C[C@@H]1Cc3ccccc3CN1C2=O; 0.27

Return reported IC50; argument: "COc1cc2c(cc1OCCCC(=O)Nc1cc(C(=O)Nc3ccc(-n4cncn4)c(OC)c3)n(C)c1)N=C[C@@H]1Cc3ccccc3CN1C2=O" 0.1

###

# Tested on: mesothelioma (H226) cancer cell line
# experimental-details: 72 hr ATP luminescence cell proliferation inhibition assay, H226
# Assay type: cell-based, human
# assay-context: H226 cells
endpoint: IC50 (nM)
Express it in nM; write the number only.

Here is how some molecules turned out for IC50.
COc1cc2c(cc1OCCCC(=O)Nc1cc(C(=O)Nc3ccc(Cl)cn3)n(C)c1)N=C[C@@H]1Cc3ccccc3CN1C2=O; 0.085
COc1cc2c(cc1OCCCC(=O)Nc1cc(C(=O)Nc3ccc(-n4cnc(C)n4)c(F)c3)n(C)c1)N=C[C@@H]1Cc3ccccc3CN1C2=O; 0.007
COc1cc2c(cc1OCCCC(=O)Nc1cc(C(=O)Nc3ccc(-n4cnc(C)c4)c(OC)c3)n(C)c1)N=C[C@@H]1Cc3ccccc3CN1C2=O; 0.19

Now for another entry.
Return reported IC50; argument: "COc1cc2c(cc1OCCCC(=O)Nc1cc(C(=O)Nc3ccc(-c4cocn4)cc3)n(C)c1)N=C[C@@H]1Cc3ccccc3CN1C2=O" 0.036

###

Listing of entries alongside the reported IC50.
# System: mesothelioma (H226) cancer cell line
# experimental-details: 72 hr ATP luminescence cell proliferation inhibition assay, H226
# Format: cell-based, human
# assay-context: H226 cells

Here is how some molecules turned out for IC50.
COc1cc2c(cc1OCCCC(=O)Nc1cc(C(=O)Nc3ccc4c(c3)oc3ccccc34)n(C)c1)N=C[C@@H]1Cc3ccccc3CN1C2=O; < 0.004 nM
COc1cc2c(cc1OCCCC(=O)Nc1cc(C(=O)Nc3ccc(-n4cnc(C)n4)nc3)n(C)c1)N=C[C@@H]1Cc3ccccc3CN1C2=O; < 0.004 nM

Now for another entry.
Return reported IC50; argument: "COc1cc2c(cc1OCCCC(=O)Nc1cc(C(=O)Nc3ccc4c(c3)Cc3cc(N)ccc3-4)n(C)c1)N=C[C@@H]1Cc3ccccc3CN1C2=O" < 0.004 nM

###

# System: mesothelioma (H226) cancer cell line
# experimental-details: 72 hr ATP luminescence cell proliferation inhibition assay, H226
# Assay type: cell-based, human
# assay-context: H226 cells
Listing of entries alongside the reported IC50.
Express it in nM; write the number only.

Here is how some compounds turned out for IC50.
COc1cc2c(cc1OCCCC(=O)Nc1cc(C(=O)Nc3ccc4c(c3)OCc3nncn3-4)n(C)c1)N=C[C@@H]1Cc3ccccc3CN1C2=O [(Ib-31)]; 0.28
COc1cc2c(cc1OCCCC(=O)Nc1cc(C(=O)Nc3ccc(-c4ccccc4)cc3)n(C)c1)N=C[C@@H]1Cc3ccccc3CN1C2=O [(Ib-43)]; 0.013
COc1cc2c(cc1OCCCC(=O)Nc1cc(C(=O)Nc3cccc(OCc4ccccc4)n3)n(C)c1)N=C[C@@H]1Cc3ccccc3CN1C2=O [(Ib-36)]; 22
COc1cc2c(cc1OCCCC(=O)Nc1cc(C(=O)Nc3ccccc3)n(C)c1)N=C[C@@H]1Cc3ccccc3CN1C2=O [(Ib-41)]; 0.083
COc1cc2c(cc1OCCCC(=O)Nc1cc(C(=O)Nc3ccc(N)cc3)n(C)c1)N=C[C@@H]1Cc3ccccc3CN1C2=O [(Ib-52)]; 0.3
COc1cc2c(cc1OCCCC(=O)Nc1cc(C(=O)Nc3ccccn3)n(C)c1)N=C[C@@H]1Cc3ccccc3CN1C2=O [(Ib-44)]; 0.085
COc1cc2c(cc1OCCCC(=O)Nc1cc(C(=O)Nc3ccc(-n4cnc(Cl)c4)c(OC)c3)n(C)c1)N=C[C@@H]1Cc3ccccc3CN1C2=O [(Ib-19)]; 0.11
COc1cc(-c2ccc(NC(=O)c3cc(NC(=O)CCCOc4cc5c(cc4OC)C(=O)N4Cc6ccccc6C[C@H]4C=N5)cn3C)c(OC)c2)ccc1N [(Ib-53)]; 0.13

Please state recorded IC50 (tested on mesothelioma (H226) cancer cell line) of COc1cc2c(cc1OCCCC(=O)Nc1cc(C(=O)Nc3ccc(-n4cnc(Cl)c4)nc3)n(C)c1)N=C[C@@H]1Cc3ccccc3CN1C2=O [(Ib-07)] 0.02

Please state recorded IC50 (tested on mesothelioma (H226) cancer cell line) of COc1cc2c(cc1OCCCC(=O)Nc1cc(C(=O)Nc3cc(C)c(-n4cncn4)c(C)c3)n(C)c1)N=C[C@@H]1Cc3ccccc3CN1C2=O [(Ib-28)] 0.72

Please state recorded IC50 (tested on mesothelioma (H226) cancer cell line) of COC(=O)c1cc(-c2ccc(NC(=O)c3cc(NC(=O)CCCOc4cc5c(cc4OC)C(=O)N4Cc6ccccc6C[C@H]4C=N5)cn3C)cc2)cn1C [(Ib-39)] 0.006

Please state recorded IC50 (tested on mesothelioma (H226) cancer cell line) of COC(=O)c1cc(NC(=O)c2cc(NC(=O)CCCOc3cc4c(cc3OC)C(=O)N3Cc5ccccc5C[C@H]3C=N4)cn2C)cn1C [(Ib-40)] 0.1

Please state recorded IC50 (tested on mesothelioma (H226) cancer cell line) of COc1cc2c(cc1OCCCC(=O)Nc1nc(C(=O)Nc3ccccc3)cs1)N=C[C@@H]1Cc3ccccc3CN1C2=O [(Ib-05)] 0.23

Please state recorded IC50 (tested on mesothelioma (H226) cancer cell line) of COc1cc2c(cc1OCCCC(=O)Nc1cc(C(=O)Nc3ccc(-n4cnc(C(F)F)c4)c(OC)c3)n(C)c1)N=C[C@@H]1Cc3ccccc3CN1C2=O [(Ib-18)] 0.11

Please state recorded IC50 (tested on mesothelioma (H226) cancer cell line) of COc1cc2c(cc1OCCCC(=O)Nc1cc(C(=O)Nc3ccc(-c4cccc(C(=O)OC(C)C)c4)cc3)n(C)c1)N=C[C@@H]1Cc3ccccc3CN1C2=O [(Ib-14)] 0.67
